Details: octanol/water
# binarize logP: threshold 4 inclusive, high side 1, low side 0

A selection of reference data follows.
compound="CCO/C(O)=C1\\C(C)=NC(C)=C(C(=O)OC)C1c1ccccc1C(F)(F)F (centres undefined)" class=0
compound=c1ccc(Oc2ccccc2)cc1 class=0
compound=CCOC(=O)c1c(C)nc(C)c(C(=O)OCC)c1-c1cccc([N+](=O)[O-])c1 class=0
compound="CCOC(=O)C1=C(C)N=C(C)/C(=C(/O)OCC)C1c1cccc(OC)c1 (centres undefined)" class=0

QUERY: Please check the record `c1ccc(Nc2ccccc2)cc1` and state if its logP is at or above 4.
RESULT: 0

QUERY: Assess whether reported logP for CCO/C(O)=C1\C(C)=NC(C)=C(C(=O)OC)C1c1ccc([N+](=O)[O-])cc1 (centres undefined) sits at 4 or higher.
RESULT: 0

QUERY: Decide: is the reported value of logP for `CC1=C(C#N)C(c2cccc([N+](=O)[O-])c2)C(C#N)=C(C)N1` equal to or greater than 4?
RESULT: 0

QUERY: Could you tell me if the measured logP of `O=C(O)c1ccccc1Nc1ccccc1` reaches 4 or more?
RESULT: 0

QUERY: State whether the measured logP reaches 4, counting equality as reaching it, for CCO/C(O)=C1\C(C)=NC(C)=C(C(=O)OC)C1c1ccccc1[N+](=O)[O-] (centres undefined)
RESULT: 0

---

Experiment: Partition coefficient (logP)
Conditions: octanol/water
quantity_measured: logP
Give the figure only, with no unit attached.

Consider the following illustrative entries.
molecule=CCOC(=O)C1=C(C)NC(C)=C(C(=O)OCC)C1c1cccc(O)c1 quantity_measured=logP reading=4.03
molecule="CCO/C(O)=C1\\C(C)=NC(C)=C(C(=O)OC)C1c1cccc(C(F)(F)F)c1 (stereo not given)" quantity_measured=logP reading=3.9
molecule="CCOC(=O)C1=C(C)N=C(C)/C(=C(/O)OCC)C1c1cccc(I)c1 (stereo not given)" quantity_measured=logP reading=4.48

QUERY: Input CCOC(=O)C1=C(C)N=C(C)/C(=C(/O)OCC)C1c1ccc(I)cc1 (stereo not given) , output reported logP.
RESULT: 4.7

QUERY: Hello, please tell me recorded logP for this one: CCOC(=O)C1=C(C)N=C(C)/C(=C(/O)OCC)C1c1cccc(C)c1 (stereo not given)
RESULT: 3.76
